Data origin, for the record: the RNAGym collection of RNA variant scans (doi:10.7554/elife.90254)

B1: LINE1-full (parent)
chain: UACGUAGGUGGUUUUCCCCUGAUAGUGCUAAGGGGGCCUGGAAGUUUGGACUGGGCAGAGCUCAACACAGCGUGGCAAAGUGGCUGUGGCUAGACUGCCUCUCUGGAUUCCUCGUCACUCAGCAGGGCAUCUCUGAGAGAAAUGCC

- Variants of: B1
- Test Protocol: self-cleavage, relative activity (ratio to wild type); higher = more cleavage; in vitro, sequencing; the parent is a self-cleaving ribozyme
Answer 0 if self-cleavage is under 0.2, and 1 if it is 0.2 or more.

Example entries and their recorded answers appear below.
• C101U U108C = 1
• A24U A140U = 1
• U20C C56U = 0
• U23C U119A = 1

Dear colleague, could you confirm whether U85C G93U has self-cleavage at or above 0.2?
0

Dear colleague, could you confirm whether G8A A138G has self-cleavage at or above 0.2?
1

Dear colleague, could you confirm whether A42G U96C has self-cleavage at or above 0.2?
0

Dear colleague, could you confirm whether A79G U119C has self-cleavage at or above 0.2?
1

Dear colleague, could you confirm whether A67C A117G has self-cleavage at or above 0.2?
0

Dear colleague, could you confirm whether C28A has self-cleavage at or above 0.2?
1

Dear colleague, could you confirm whether A64C U87C has self-cleavage at or above 0.2?
1

Dear colleague, could you confirm whether C19U U47C has self-cleavage at or above 0.2?
1

Dear colleague, could you confirm whether U132A G137A has self-cleavage at or above 0.2?
1
